Target: Tyrosyl-tRNA synthetase, putative (Trypanosoma cruzi (strain CL Brener)) (UniProt Q4DSP6)
Sequence (Q4DSP6 as listed by the source): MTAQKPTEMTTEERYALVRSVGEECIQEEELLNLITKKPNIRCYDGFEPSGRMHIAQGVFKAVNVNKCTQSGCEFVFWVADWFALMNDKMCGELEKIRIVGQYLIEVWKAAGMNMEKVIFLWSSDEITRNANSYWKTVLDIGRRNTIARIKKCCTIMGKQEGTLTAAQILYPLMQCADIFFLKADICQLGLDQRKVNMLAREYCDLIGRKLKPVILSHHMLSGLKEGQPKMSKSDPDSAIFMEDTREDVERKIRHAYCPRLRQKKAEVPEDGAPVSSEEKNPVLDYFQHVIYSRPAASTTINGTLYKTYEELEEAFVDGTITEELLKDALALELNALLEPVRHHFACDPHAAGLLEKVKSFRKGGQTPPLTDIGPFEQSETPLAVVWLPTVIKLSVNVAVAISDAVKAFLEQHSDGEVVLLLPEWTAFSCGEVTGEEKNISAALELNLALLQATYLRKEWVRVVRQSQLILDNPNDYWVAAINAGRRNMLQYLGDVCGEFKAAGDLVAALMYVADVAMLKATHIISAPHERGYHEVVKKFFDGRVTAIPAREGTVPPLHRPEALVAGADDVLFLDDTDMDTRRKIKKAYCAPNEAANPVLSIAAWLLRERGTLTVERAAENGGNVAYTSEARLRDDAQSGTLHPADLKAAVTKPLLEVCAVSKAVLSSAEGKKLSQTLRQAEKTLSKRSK
Assay: Trypanosoma cruzi tyrosyl tRNA synthetase (TcYRS) _High Tyrosine SOP
Format: functional
Set-up: scale not given: in the data most compounds retested in dose-response had high values
Settings: 30 µM
Would you kindly list Percent Effect for each of these molecules?
One number for each entry, in %.

CS(=O)(=O)NC[C@@H]1OC[C@H]2CN(C(=O)c3ccc[nH]3)CC[C@H]21    -265
CCn1ccnc1CN1CCN(C(C)C(=O)NC2CCCCC2)CC1 (centres undefined)    -3.43

Please give Percent Effect, item by item, for the list that follows.
1. CSC(C)(C)CNC(=O)NC1CCSCC1
2. O=C(NCc1ccncc1)N(Cc1ccccc1F)C1CC1
3. Cc1nn(C)c(C)c1C1CCCN1C(=O)c1cc[nH]n1 (centres undefined)
4. COCCCN1CCC(NC(=O)C(C)C)CC1
5. O=C(CCNC(=O)C1CCCC1)NCc1cccnc1-n1cncn1
6. Cc1ccc(C)c(NC(=O)Nc2c[nH]c(=O)[nH]c2=O)c1
7. O=C(c1nc(COc2ccc3c(c2)OCO3)no1)N1CCCC1
8. COc1ccc(C(=O)NCC(c2cccn2C)N2CCCC2)c(OC)c1 (centres undefined)

[0.546, 2.73, -1.04, 0, 14.3, 2.12, 3.17, 6.35]

Please give Percent Effect, item by item, for the list that follows.
1. CC(NC(=O)N1CCC(n2cncn2)CC1)c1ccc(F)cc1F (centres undefined)
2. CC(C)c1nccn1-c1cccc(C2CCN(C)CC2)n1
3. CCc1noc(CN(C)Cc2ccc(N3CCCCC3)cc2)n1
4. Cc1c(C(=O)N2CCCC2c2cnn(C)c2)nnn1-c1ccccc1 (centres undefined)
5. COCC1CN(C(=O)CNC(C)=O)Cc2ncnn2C1 (centres undefined)
6. Cc1nc(CN2CCN(C(=O)c3sccc3C3CC3)CC2)cs1
7. CC(NC(=O)CSCC#N)c1cccc(NC(=O)c2ccccc2)c1 (centres undefined)
8. COCCN1C[C@@H]2CCCO[C@@H]2[C@H](N(C)Cc2ccco2)C1

[5.42, 1.07, -6.45, 0.99, 6.45, -2.86, 5.42, 7.45]

Please give Percent Effect, item by item, for the list that follows.
1. Cc1cccc(-n2cc(C(=O)N3CCCC(n4ccnc4)C3)nn2)c1 (centres undefined)
2. Cc1cnn(CC2CCCN2Cc2nc3ccccc3n2C)c1 (centres undefined)
3. O=C(c1cccs1)N1CCC2(C1)c1ccccc1S(=O)(=O)N2CC1CC1 (centres undefined)
4. Cn1c(Cn2ccnc2)nnc1C1CCN(C(=O)C2(C)CC2)CC1
5. Cc1nc2cc(C3CCN(Cc4cccc(F)c4F)C3)nn2c(O)c1C (centres undefined)
6. Cc1cc(CN2CCN(C(c3ccccc3)c3ccccc3)CC2)no1

1.91
9.36
5.32
5.21
3.23
8.37
